Field: GI50. Provide a value for each of the molecules that follow.
tested on: HCC 2998; assay: NCI tumour cell line growth inhibition, 48 h
Active and inactive are the calls of the source. Cut-off read from the data, not from the text of the source: active = GI50 up to about 1.1 µM and inactive = higher.

Illustrative cases are given below, each with its answer.
[[record]]
molecule = "CCN(CC)CCCn1c(=O)c2ccccc2n2c3c(=O)n(C)c(=O)n(C)c3nc12"
target_or_system = "HCC 2998"
result = "8.95 µM (inactive)"

[[record]]
molecule = "[O-]/[N+](=N\\c1ccccc1CO)c1ccccc1CO"
target_or_system = "HCC 2998"
result = "> 100 µM (inactive)"

[[record]]
molecule = "O=C(O)CCC(=O)C(=O)O"
target_or_system = "HCC 2998"
result = "> 100 µM (inactive)"


Here are 7 molecules. What values of GI50 were reported for them?
1. O=C1C=CC2=[N+]([O-])C(c3ccccc3)(c3ccccc3)/C(=N\c3ccccc3)C2=C1
2. N#Cc1c2c(c(N3CCOCC3)n3c1nc1ccccc13)CCCC2
3. CCN1CCC(O)(/C=C/c2cccc(C)c2)C(C(=O)/C=C/c2cccc(C)c2)C1 (configuration not stated)
4. CCCN1CN(c2ccccc2)C2(CCN(CCCC(=O)c3ccc(F)cc3)CC2)C1=O
5. CCCC(=O)Nc1cc(C(=O)N2C[C@@H]3C[C@]34C2=CC(=O)c2[nH]cc(C)c24)n(COC)c1
6. C=CCN(c1cc(OCc2ccccc2)c(NC(C)=O)cc1[N+](=O)[O-])S(C)(=O)=O
7. CCOC(=O)/C=C(/C(=O)OCC)n1ccc(=O)n(Cc2cn(CCCCOC(C)=O)nn2)c1=O

1: 6.3 µM (inactive); 2: 21.8 µM (inactive); 3: 1.6 µM (inactive); 4: 7.82 µM (inactive); 5: 3.28 µM (inactive); 6: > 100 µM (inactive); 7: > 100 µM (inactive)

For each of the molecules below, note its GI50.
1. CC(C)c1ccc2c(c1)/C(=C1/Nc3ccccc3C1=O)C(=O)N2
2. O=C(Cn1c2ccc(Br)cc2c2nc3ccccc3nc21)NC1CCCCC1
3. O=C1NC2=C(CCCC/C2=N\O)C12CCCCC2
4. Cc1ccc(-n2c(=S)[nH]c3ccc(Br)cc3c2=O)cc1
5. CC(NNC(=O)c1cc[n+]([BH2-]C#N)cc1)c1cccc(C(F)(F)F)c1 (configuration not stated)
6. C=C1CC(C/C=C(\C)CC2CC(=C)C(=O)O2)OC1=O (configuration not stated)

["19.2 µM (inactive)", "> 100 µM (inactive)", "> 100 µM (inactive)", "> 100 µM (inactive)", "> 100 µM (inactive)", "> 100 µM (inactive)"]

Please give the measured GI50 for this molecule: Nc1nc2c(N)cc(C(F)(F)F)cc2nc1-c1ccccc1
> 100 µM (inactive)

----------
tested on: COLO 205; assay: NCI tumour cell line growth inhibition, 48 h
Calls of active or inactive are those of the source. Rule as the data show it: active = GI50 up to about 1.1 µM and inactive = higher.
Can you tell me GI50 for the items I'm about to list?

Previously resolved entries follow.
[[record]]
compound = "COc1cccc2c1C(=O)c1c(O)c3c(c(O)c1C2=O)C[C@@](O)(C(C)=O)CC3OC1CC(OC2CC(N)C(O)C(C)O2)C(O)C(C)O1 (some centres undefined)"
result = "74.6 µM (inactive)"

[[record]]
compound = "[O-]/[N+](=N\\c1ccccc1CO)c1ccccc1CO"
result = "> 100 µM (inactive)"

[[record]]
compound = "COC(=O)C1=C(C(=O)OC)C2(C)CCC(=O)C1O2 (centres undefined)"
result = "> 10 µM (inactive)"

[[record]]
compound = "CN(C)CCn1c(=O)nc2c3c(c([N+](=O)[O-])ccc31)Nc1ccc(O)cc1-2"
result = "2.72 µM (inactive)"


Batch request: GI50 per item, same order as input.
1. COc1nc(NC2OC(COC(C)=O)C(OC(C)=O)C(OC(C)=O)C2OC(C)=O)c2c(OC(C)=O)c(C)c(=O)oc2n1 (centres undefined)
2. COC1=C(C)C(=O)C2=C(C1=O)C1C3CC4=C(C(=O)C(OC)=C(C)C4=O)C(CNC(=O)C(C)O)N3C(C#N)C(C2)N1C (centres undefined)
3. NC(=O)c1csc(C2CCC(CO)O2)n1 (centres undefined)
4. CC1OC(OC2C(O)COC(OC3C(C)OC(OC4C(OC(=O)[C@]56CCC(C)(C)C[C@@H]5C5=CCC7[C@@]8(C)C[C@H](O)[C@H](OC9OC(CO)C(O)C(OC%10OC(CO)C(O)C(O)C%10O)C9O)[C@@](C)(CO)[C@@H]8CC[C@@]7(C)[C@]5(C)CC6)OCC(O)C4O)C(O)C3OC3OCC(O)(CO)C3O)C2O)C(O)C(O)C1O (some centres undefined)
5. O=C1c2ccccc2CC12Cc1ccccc1C2

1. > 100 µM (inactive)
2. < 0.01 µM (active)
3. > 100 µM (inactive)
4. 6.31 µM (inactive)
5. 44.7 µM (inactive)
